Record form. Attribute: T/C. Fill in for each entry.
# Test system: BDF1 mice, P388 leukemia ip, median survival T/C
# test-description: NCI In Vivo Anticancer Drug Screen. Data for tumor model P388 Leukemia (intraperitoneal) in B6D2F1 (BDF1) mice
# condition-info: endpoint: median survival time; dose: 50.0 mg/kg/injection; schedule: Q04DX003 (ip); vehicle: saline; higher = longer survival
Inconclusive results and toxic doses are left out.

q: // query T/C value for entry CC(CNCCN)C[Si](C)(C)C (stereo unspecified)
a: 94 % of control

q: // next record CCOC(=O)/C(C)=C\c1c(C)[nH]c(=O)[nH]c1=O
a: 104 % of control

q: // next record C[C@]12C=CC(=O)C=C1CC[C@@H]1[C@@H]2C(=O)C[C@@]2(C)[C@H]1CC[C@]2(O)C(=O)CO
a: 93 % of control

q: // next record O=[N+]([O-])c1ccc(N2CCCCC2)c([N+](=O)[O-])c1
a: 114 % of control

q: // next record CC(C)C1(C(C)C)OCCO1
a: 87 % of control

q: // next record C/C(=N\[N+](C)(C)C)c1cccc(C)n1
a: 95 % of control
